Test system: Mus musculus
experiment notes: Phototoxicity in Swiss albino mouse exposed to 4 hrs of 18 J/cm'2 UV light irradiation assessed as ear thickness at 140 mg/kg, po after 48 hrs
Type: organism-based
Design: dose 140 mg/kg, route oral
study conditions: in vivo
Recorded Activity for the following compounds
quantity kind: Activity

- compound: "O=C(O)c1cn(C2CC2)c2cc(N3CCN(Cc4ccc5c(c4)OCO5)CC3)c([N+](=O)[O-])cc2c1=O"
  quantity kind: "Activity"
  endpoint value: "0.28 mm"
- compound: "CN1CCN(c2cc3c(cc2[N+](=O)[O-])c(=O)c(C(=O)O)cn3C2CC2)CC1c1ccccc1 (centres undefined)"
  quantity kind: "Activity"
  endpoint value: "0.32 mm"
- compound: "O=C(O)c1cn(C2CC2)c2cc(N3CCC(N4CCCCC4)CC3)c([N+](=O)[O-])cc2c1=O"
  quantity kind: "Activity"
  endpoint value: "0.26 mm"
- compound: "CCn1cc(C(=O)O)c(=O)c2cc(F)c(N3CCNC(C)C3)c(F)c21 (centres undefined)"
  quantity kind: "Activity"
  endpoint value: "0.53 mm"

---

Tested on: Mus musculus
experiment notes: Phototoxicity in Swiss albino mouse exposed to 4 hrs of 18 J/cm'2 UV light irradiation assessed as ear thickness at 140 mg/kg, po after 72 hrs
Assay type: organism-based
Design: dose 140 mg/kg, route oral
study conditions: in vivo
quantity kind: Activity (mm)

- compound: "O=C(O)c1cn(C2CC2)c2cc(N3CCN(Cc4ccc5c(c4)OCO5)CC3)c([N+](=O)[O-])cc2c1=O"
  quantity kind: "Activity"
  units: "mm"
  endpoint value: 0.31
- compound: "CCn1cc(C(=O)O)c(=O)c2cc(F)c(N3CCNC(C)C3)c(F)c21 (centres undefined)"
  quantity kind: "Activity"
  units: "mm"
  endpoint value: 0.64
- compound: "O=C(O)c1cn(C2CC2)c2cc(N3CCC(N4CCCCC4)CC3)c([N+](=O)[O-])cc2c1=O"
  quantity kind: "Activity"
  units: "mm"
  endpoint value: 0.29
- compound: "CN1CCN(c2cc3c(cc2[N+](=O)[O-])c(=O)c(C(=O)O)cn3C2CC2)CC1c1ccccc1 (centres undefined)"
  quantity kind: "Activity"
  units: "mm"
  endpoint value: 0.32
